# STUDY SYSTEM: Coagulation factor XII (Homo sapiens, UniProt P00748);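 note: activated factor XIIa alpha cleaving a fluorogenic AMC peptide substrate; inhibitor potency from loss of enzyme activity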
# Sequence (P00748 20-372 limits assumed): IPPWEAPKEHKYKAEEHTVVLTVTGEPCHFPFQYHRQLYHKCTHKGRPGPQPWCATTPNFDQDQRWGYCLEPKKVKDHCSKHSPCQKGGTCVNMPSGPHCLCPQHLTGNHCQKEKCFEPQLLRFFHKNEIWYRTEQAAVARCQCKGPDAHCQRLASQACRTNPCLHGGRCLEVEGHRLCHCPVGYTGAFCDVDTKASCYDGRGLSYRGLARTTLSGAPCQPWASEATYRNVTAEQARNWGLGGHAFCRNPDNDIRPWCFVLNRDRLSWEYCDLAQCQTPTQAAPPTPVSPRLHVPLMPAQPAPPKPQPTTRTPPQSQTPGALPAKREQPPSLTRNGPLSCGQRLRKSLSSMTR
# Sequence (P00748 373-615 limits assumed): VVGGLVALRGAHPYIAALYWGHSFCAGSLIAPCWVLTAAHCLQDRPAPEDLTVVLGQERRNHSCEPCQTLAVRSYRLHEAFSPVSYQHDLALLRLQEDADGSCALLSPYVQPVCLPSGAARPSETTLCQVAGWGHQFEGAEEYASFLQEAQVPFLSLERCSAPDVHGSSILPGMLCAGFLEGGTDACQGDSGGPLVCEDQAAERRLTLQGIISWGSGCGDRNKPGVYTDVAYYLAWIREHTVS
# Assay type: functional
The source made the active and inactive calls.
The reply should be one of these categories: active, inactive

Sample answers from the record:
COC(=O)c1c(NC(=O)c2ccc(Br)s2)sc2c1CCC2: active
[O-][S+](NC1CCCCC1)C12CC3CC(CC(C3)C1)C2 (stereo unspecified): inactive
NS(=O)(=O)c1ccc(CCNC(=O)Cc2ccccc2[N+](=O)[O-])cc1: inactive
CC(C)(C)c1ccc(Oc2ccc(NC(=O)CCCC(=O)O)cn2)cc1: inactive

// query Returns: the outcome recorded for Cc1ccccc1Cn1cnc2c(NS(C)(=O)=O)c(C)c(C)cc21 in this assay.
// result inactive

// query Thanks! And Cc1c(NC(=O)c2ccc(Br)o2)cccc1C(=O)O ?
// result inactive
